System: rat B1R (bradykinin receptor 1) (Rattus norvegicus, UniProt P97583)
Construct: expressed in transfected cells; host or cells: CHO K1 cells
Sequence (P97583 1-337): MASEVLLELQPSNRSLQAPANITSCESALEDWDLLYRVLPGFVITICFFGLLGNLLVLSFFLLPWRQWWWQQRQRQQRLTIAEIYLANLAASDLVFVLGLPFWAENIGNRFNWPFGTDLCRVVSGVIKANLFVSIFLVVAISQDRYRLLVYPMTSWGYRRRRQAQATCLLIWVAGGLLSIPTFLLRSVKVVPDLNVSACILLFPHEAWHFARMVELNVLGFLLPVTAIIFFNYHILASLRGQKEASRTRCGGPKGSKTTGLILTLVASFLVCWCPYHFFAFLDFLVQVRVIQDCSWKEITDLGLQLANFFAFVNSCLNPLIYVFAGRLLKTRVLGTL
Measurement notes: FLIPR Ca2+ assay (Fluo-4) on CHO K1 cells stably transfected with the B1R gene of the rat (rB1R cells): % inhibition at 10 μM / IC50, agonist Des-Arg9-bradykinin
Format: cell-based
Condition info: CHO-K1, rat B1R
Label f if inhibition at 10 µM falls below 80%; label t in every other case.

Recorded results for 5 compounds are shown here.
[[record]]
compound = "Cn1nnc2cc(CN3CCC4(CC3)CCN(C(=O)c3ccc5c(c3)C(NC(=O)c3cc(C(F)(F)F)ccc3Cl)CC5)C4)ccc21 (centres unmarked)"
group_label = "f"

[[record]]
compound = "O=C(c1ccc2c(c1)C(NS(=O)(=O)c1c(Cl)cc(C(F)(F)F)cc1Cl)CC2)N1CCC2(CCN(c3ccncc3)CC2)C1 (centres unmarked)"
group_label = "t"

[[record]]
compound = "CN(C1CCc2ccc(C(=O)N3CCC4(CC3)CCN(c3ccncc3)CC4)cc21)S(=O)(=O)c1cccc(C(F)(F)F)c1 (centres unmarked)"
group_label = "t"

[[record]]
compound = "O=C(NC1CCc2ccc(C(=O)N3CCC4(CC3)CCN(c3ccc(F)cc3)CC4)cc21)c1sccc1Cl (centres unmarked)"
group_label = "f"

[[record]]
compound = "COc1ccc(CN2CCC3(CC2)CCN(C(=O)c2ccc4c(c2)C(N(C(=O)c2ccccc2Cl)C2CC2)CC4)C3)cc1F (centres unmarked)"
group_label = "f"


As a next step, examine the compound that follows.
Would you say Cc1cc(F)cc(C)c1S(=O)(=O)N(C)C1CCc2ccc(C(=O)N3CCC4(CC3)CCN(c3ccncc3)CC4)cc21 (centres unmarked) shows inhibition at 10 µM at minimum 80%? t

====

System: human B1R (bradykinin receptor 1) (Homo sapiens)
Construct: expressed in transfected cells; host or cells: CHO K1 cells
Sequence (P46663 whole entry): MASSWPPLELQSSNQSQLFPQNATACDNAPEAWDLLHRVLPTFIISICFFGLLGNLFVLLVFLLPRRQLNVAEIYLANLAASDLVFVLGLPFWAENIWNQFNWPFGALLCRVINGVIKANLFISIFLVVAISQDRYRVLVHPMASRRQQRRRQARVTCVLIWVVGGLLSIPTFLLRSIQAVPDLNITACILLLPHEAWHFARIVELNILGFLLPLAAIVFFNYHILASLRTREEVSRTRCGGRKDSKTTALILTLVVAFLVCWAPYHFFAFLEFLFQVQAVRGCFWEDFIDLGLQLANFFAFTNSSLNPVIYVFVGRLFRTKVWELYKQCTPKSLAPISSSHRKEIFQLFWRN
Measurement notes: FLIPR Ca2+ assay (Fluo-4) on CHO K1 cells stably transfected with the human B1R gene (hB1R cells): % inhibition at 10 μM / IC50, agonist Lys-Des-Arg9-bradykinin
Assay type: cell-based
Condition info: CHO-K1, human B1R
Listed here are molecules together with their documented inhibition at 10 µM.
Respond with the bare value in %.

Study these solved cases before continuing.
[[record]]
molecule = "COc1ccc(C(=O)N[C@@H]2CCc3ccc(C(=O)N4CCC5(CCN(c6ccncc6)CC5)C4)cc32)c(Cl)c1 [Example H-63]"
measured_value = 100

[[record]]
molecule = "O=C(NC1CCc2ccc(C(=O)N3CCC4(CCN(c5ncc(C(F)(F)F)cn5)CC4)C3)cc21)c1ccccc1Cl (stereo not shown) [Example H-130]"
measured_value = 94


Give the reported inhibition at 10 µM for this molecule. Cc1ccc(C(=O)N(C)C2CCc3ccc(C(=O)N4CCC5(CC4)CCN(c4ccncc4)CC5)cc32)c(F)c1 (stereo not shown) [IND_CC-304] 49

Annotate the molecule O=C(N[C@@H]1CCc2ccc(C(=O)N3CCC4(CC3)CCN(c3ccncc3)CC4)cc21)c1cccc(Cl)c1Cl [Example H-95] with its measured inhibition at 10 µM. 100
